# reported TGI; entries follow
test system: IGROV1 ovarian; experiment: NCI tumour cell line growth inhibition, 48 h

Give the measured TGI for O=c1cccccc1[O-].O=c1cccccc1[O-].O=c1cccccc1[O-].[Ce+3]
88.4 µM

Give the measured TGI for O=C1C2=C(SCCS2)C(=O)c2c(Sc3ccc(Cl)cc3)c(Sc3ccc(Cl)cc3)c(Sc3ccc(Cl)cc3)c(Sc3ccc(Cl)cc3)c21
> 100 µM

Give the measured TGI for COc1c(C)c(C/C=C(\C)CC/C=C(\C)CC/C=C(\C)CCC=C(C)C)c(OC)c2ccccc12
> 100 µM

Give the measured TGI for COc1cccc(-c2nccc3c(OCc4ccccc4)c(OC)c(OC)cc23)c1
> 100 µM

Give the measured TGI for CCOC(=O)N1C(c2ccccc2)C=CC(c2ccccc2)N1C(=O)OCC (centres undefined)
> 100 µM

***
Give the measured TGI for CCOC(=O)C(NC(=O)CC)(Nc1ccc(F)c(Cl)c1)C(F)(F)F (centres undefined)
> 100 µM

Give the measured TGI for COC([C@@H](OC(=O)c1ccccc1)[C@H](OC(=O)c1ccccc1)C(O)COC(=O)c1ccccc1)n1cc(C)c(=O)[nH]c1=O (some centres undefined)
> 100 µM

Give the measured TGI for CCOC(=O)C1=C(Nc2ccc(Br)cc2)OC/C1=N\NC(=O)c1ccccc1O
> 100 µM

Give the measured TGI for CC(C)(C)OC(=O)N1[C@@H]2Cc3ccc(N)cc3[C@@]1(C)c1ccccc12
> 100 µM

Give the measured TGI for CC(=O)[O-].[Zn].c1ccc(/C(=N\Nc2ccccn2)c2ccccn2)cc1
0.272 µM

Give the measured TGI for CC12ON(P(=O)(c3ccccc3)c3ccccc3)C(C)(c3ccccc31)c1ccccc12
> 100 µM

Give the measured TGI for O=C(CCSc1ccnc2c(C(F)(F)F)cccc12)N/N=C/c1cc(Cl)c(Cl)cc1Cl
40.7 µM

Give the measured TGI for Cn1c(=O)c(C(=O)NC(=O)NCCCCCOC(=O)CCCCCCCCCCC(=O)OCCCCCNC(=O)NC(=O)c2cn(Cc3ccccc3)c(=O)n(C)c2=O)cn(Cc2ccccc2)c1=O
> 100 µM

---

system: BT-549 breast; experiment: NCI tumour cell line growth inhibition, 48 h; in the data active = GI50 below about 0.43 µM; inactive = the rest
A correct response names exactly one class from active, inactive

Hi team, can someone confirm the assay call for CC(C)C[C@H](NC(=O)[C@H](Cc1cccc2ccccc12)NS(=O)(=O)c1cccc2cccnc12)B(O)O ?
active

Hi team, can someone confirm the assay call for NCCCN1CCN(CCCNc2nc3ccccc3c3[nH]c4ccccc4c23)CC1 ?
inactive

Hi team, can someone confirm the assay call for CCCCCCCCCCCCCCCCCCOc1ccccc1CC(=O)NCC[N+](C)(C)C ?
inactive

Hi team, can someone confirm the assay call for O=C(N/N=C/c1ccc(Cl)cc1Cl)c1ccc2nc(-c3ccc(Cl)cc3)[nH]c2c1 ?
inactive

***
Hi team, can someone confirm the assay call for COc1cccc(N=N/C(=N\NC(=O)c2cc(Br)ccc2O)c2ccc(N(CCC#N)CCC#N)cc2OC)c1 ?
inactive

Hi team, can someone confirm the assay call for Cc1ccc(Nc2cc(C)nc(NCCCNc3ccnc4cc(Cl)ccc34)n2)cc1 ?
inactive

---

system: COLO 205 colon; test: NCI tumour cell line growth inhibition, 48 h
# reported TGI; entries follow

See these solved cases before continuing.
Give the measured TGI for COc1cc(/C=C\c2ccc(Br)cc2)cc(OC)c1OC
1.21 µM

Give the measured TGI for CCn1c(=O)c2ccccc2n2c(=O)c3cc4ccccc4cc3nc12
> 100 µM

Give the measured TGI for C=Cc1nc(C#N)c(N)o1
> 100 µM

Give the measured TGI for O=C(CNc1ccc2c(=S)c3ccccc3[nH]c2c1)Nc1ccccc1-c1ccccc1NC(=O)CNc1ccc2c(=S)c3ccccc3[nH]c2c1
35.8 µM

Give the measured TGI for NS(=O)(=O)c1ccc(-n2ncc3c(Nc4ccccc4)ncnc32)cc1
> 100 µM

Give the measured TGI for COc1cc2c(cc1OC)[C@@](C)(C(O)C(O)C(C)(C)O)NCC2 (stereo not given in full)
> 100 µM

Give the measured TGI for O=C(C(Cl)=C(N1CCCCC1)N1CCCCC1)C(Cl)Cl
> 100 µM

Give the measured TGI for COc1ccc(Cn2cc3c(c2-c2cc(OC)c(OC)c(OC)c2)CCc2cnoc2-3)cc1N
0.789 µM

Give the measured TGI for Cn1c(=O)c(C(=O)NC(=O)NCCCCCOC(=O)CCCCCCCCCCC(=O)OCCCCCNC(=O)NC(=O)c2cn(Cc3ccccc3)c(=O)n(C)c2=O)cn(Cc2ccccc2)c1=O
> 100 µM

***
Give the measured TGI for Cc1ccc(S(=O)(=O)n2ccc(-c3ccc4ccn(S(=O)(=O)c5ccc(C)cc5)c4c3)c2)cc1
> 100 µM
